Below, Ki values reported for Tyrosine-protein kinase JAK2 (Homo sapiens, UniProt O60674) across several publications.
measured parameter: Ki

INSERT INTO assay_data (molecule, system_under_test, measured_parameter, value_observed) VALUES
  ('N#Cc1cccc(F)c1-c1cc(-n2cc3c(n2)CC(C(N)=O)CN3)c2c(n1)CNC2=O (centres unmarked)', 'Tyrosine-protein kinase JAK2 (Homo sapiens, UniProt O60674)', 'Ki', '10 to 100 nM'),
  ('CCC(CC)(Nc1ccnc(-c2c[nH]c3ncccc23)n1)C(=O)NCC(F)(F)F', 'Tyrosine-protein kinase JAK2 (Homo sapiens, UniProt O60674)', 'Ki', '≥ 500 nM'),
  ('CC1(O)CN(c2ccn(-c3cc(-c4c(F)cccc4C#N)nc4c3C(=O)NC4)n2)CCC1F (centres unmarked)', 'Tyrosine-protein kinase JAK2 (Homo sapiens, UniProt O60674)', 'Ki', '10 to 100 nM'),
  ('COC(=O)C1C2C=CC(C2)C1C(=O)Nc1nc(-c2ncnc3[nH]ccc23)cs1 (centres unmarked)', 'Tyrosine-protein kinase JAK2 (Homo sapiens, UniProt O60674)', 'Ki', '< 100 nM'),
  ('O=C1NCc2nc(-c3c(F)cccc3F)cc(Nc3ccc4c(c3)OC(F)(F)O4)c21', 'Tyrosine-protein kinase JAK2 (Homo sapiens, UniProt O60674)', 'Ki', '≥ 1000 nM'),
  ('O=C(CC1CCCC1)Nc1nc(-c2ncnc3[nH]ccc23)cs1', 'Tyrosine-protein kinase JAK2 (Homo sapiens, UniProt O60674)', 'Ki', '< 100 nM'),
  ('O=C(c1ccc(-c2ncnc3[nH]ccc23)o1)N(CCC(F)(F)F)C1CCCC1', 'Tyrosine-protein kinase JAK2 (Homo sapiens, UniProt O60674)', 'Ki', '< 100 nM'),
  ('C[C@H](Nc1cc(-c2cnn3cccnc23)nc(OCCN2CCCC2=O)n1)c1ccc(F)cc1F', 'Tyrosine-protein kinase JAK2 (Homo sapiens, UniProt O60674)', 'Ki', '< 10 nM');
